Assay: Pharmacokinetic studies of NTX after MN treatment with or without FLU
Conditions: hairless, guinea pig, plasma, topical or ocular, 200 μL NTX gel, Tmax, NTX in plasma, HGP; MN control: MN + NTX gel
Where a name gives a salt, the structure may show the parent alone.
readoutKind: Tmax (h)

INSERT INTO measurements (molecule, readoutkind, valuereported) VALUES
  ('O=C1CC[C@@]2(O)[C@H]3Cc4ccc(O)c5c4[C@@]2(CCN3CC2CC2)[C@H]1O5 [NTX, Naltrexone HCL]', 'Tmax', 2.8);

====

Test: Pharmacokinetic studies of NTX after MN treatment with or without FLU
Conditions: hairless, guinea pig, plasma, topical, Tmax or time to maximum plasma concentration, NTX, all studies
Counter-ions that a name gives are not always drawn.
readoutKind: Tmax

INSERT INTO assay_data (compound, valuereported) VALUES
  ('O=C1CC[C@@]2(O)[C@H]3Cc4ccc(O)c5c4[C@@]2(CCN3CC2CC2)[C@H]1O5 [NTX, Naltrexone HCL]', '0.25 to 4 h');

====

Assay: Pharmacokinetic studies of NTX after MN treatment with or without FLU
Settings: hairless, guinea pig, plasma, topical or ocular, 200 μL NTX gel, Cmax, NTX in plasma, HGP; MN control: MN + 200 μL NTX gel; n=3
Counter-ions that a name gives are not always drawn.
readoutKind: Cmax (ng/mL)

INSERT INTO results (compound, readoutkind, valuereported) VALUES
  ('O=C1CC[C@@]2(O)[C@H]3Cc4ccc(O)c5c4[C@@]2(CCN3CC2CC2)[C@H]1O5 [NTX, Naltrexone HCL]', 'Cmax', 39.4);

====

Experiment: Pharmacokinetic studies of NTX after MN treatment with or without FLU
Conditions: hairless, guinea pig, plasma, topical or ocular, Tmax, NTX in plasma, HGP; Vehicle control: MN + NTX gel + ethanol
Structures can show the parent of a compound that is named as a salt.
readoutKind: Tmax (h)

INSERT INTO measurements (compound, readoutkind, uom, valuereported) VALUES
  ('O=C1CC[C@@]2(O)[C@H]3Cc4ccc(O)c5c4[C@@]2(CCN3CC2CC2)[C@H]1O5 [NTX, Naltrexone HCL]', 'Tmax', 'h', 1.4);

====

Test: Pharmacokinetic studies of NTX after MN treatment with or without FLU
Details: hairless, guinea pig, plasma, topical or ocular, AUC, NTX in plasma, HGP; Vehicle control: MN + NTX gel + ethanol
Structures can show the parent of a compound that is named as a salt.
readoutKind: AUC (ng·h/mL)

INSERT INTO results (molecule, uom, valuereported) VALUES
  ('O=C1CC[C@@]2(O)[C@H]3Cc4ccc(O)c5c4[C@@]2(CCN3CC2CC2)[C@H]1O5 [NTX, Naltrexone HCL]', 'ng·h/mL', 1700);

====

Assay: Pharmacokinetic studies of NTX after MN treatment with or without FLU
Conditions: hairless, guinea pig, plasma, topical or ocular, 200 μL NTX gel, AUC, NTX in plasma, HGP; MN control: MN + NTX gel
Structures can show the parent of a compound that is named as a salt.
readoutKind: AUC

INSERT INTO measurements (compound, valuereported) VALUES
  ('O=C1CC[C@@]2(O)[C@H]3Cc4ccc(O)c5c4[C@@]2(CCN3CC2CC2)[C@H]1O5 [NTX, Naltrexone HCL]', '614 ng·h/mL');

====

Test: Pharmacokinetic studies of NTX after MN treatment with or without FLU
Details: hairless, guinea pig, plasma, topical or ocular, AUC, NTX in plasma, HGP; Treatment group: MN + NTX gel + FLU in ethanol
Counter-ions that a name gives are not always drawn.
readoutKind: AUC (ng·h/mL)

INSERT INTO assay_data (compound, valuereported) VALUES
  ('O=C1CC[C@@]2(O)[C@H]3Cc4ccc(O)c5c4[C@@]2(CCN3CC2CC2)[C@H]1O5 [NTX, Naltrexone HCL]', 1410);

====

Experiment: Pharmacokinetic studies of NTX after MN treatment with or without FLU
Conditions: hairless, guinea pig, plasma, topical or ocular, Cmax, NTX in plasma, HGP; Vehicle control: MN + 300 μL NTX gel + 40 μL ethanol (200 proof); n=4
Counter-ions that a name gives are not always drawn.
readoutKind: Cmax (ng/mL)

INSERT INTO measurements (compound, valuereported) VALUES
  ('O=C1CC[C@@]2(O)[C@H]3Cc4ccc(O)c5c4[C@@]2(CCN3CC2CC2)[C@H]1O5 [NTX, Naltrexone HCL]', 39.3);
